Assay: protein stability index of a GFP-peptide fusion (GPS, HEK-293T) (PSI 1-6); higher = more stable;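 further: 24-mer peptide tiles fused after GFP, lentivirally expressed, FACS-sorted into six equal bins by GFP/DsRed ratio, decoded by Illumina sequencing, PSI is the read-weighted mean bin number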
Conditions: treatment: DMSO; c terminus: a fixed tail appended
readout_type: protein stability index
API note: the answer field is a bare number with no unit suffix.

In the examples that follow, each entry is paired with its recorded protein stability index.
sequence_text="ITTDNLQCRERREHPNLVRDHVET [TEKT4]" readout_type="protein stability index" recorded_value=4.35
sequence_text="SQHRRIHSGEKPFICKECGKAYGW [ZNF232]" readout_type="protein stability index" recorded_value=2.67
sequence_text="RLDFFEKPDYEYLRTLFTDLFEKK [CSNK1G1]" readout_type="protein stability index" recorded_value=2.54

Data request, read-out protein stability index, for TGEHREFKLDKKYQRPQDSEDMWG [FBF1] 4.56

What protein stability index value was documented for this sequence, KEKQSRDFQGRILSVDPEEEREEG [RHOBTB1] ? 5.25

Entry under review: AIMNALIEAGAHMDATNAFKKTAY [FEM1A] . Reported protein stability index? 2.51

Query (sequence): VNADIEKVNQNQAKRCTVIGGSGF [NSDHL] ; field requested: protein stability index 3.79

protein stability index for YGPLKPLPQTPHLEEDLKEVLRSE [MYBL2] ? 5

Which protein stability index value is on record for PAVRQLLPCARVQICRAQGLETLF [ZSWIM9] ? 2.19

====

Item-by-item account of protein stability index
Experiment: protein stability index of a GFP-peptide fusion (GPS, HEK-293T) (PSI 1-6); higher = more stable
Conditions: treatment: DMSO; c terminus: a fixed tail appended
Lab note: record the figure alone, no unit after it.

sequence_text="TVVTGLGPDTQDLEGQSPPQSLPS [PBXIP1]" recorded_value=5.07
sequence_text="LTERKYKGDSTIRELKAKLSGVEE [SASS6]" recorded_value=4.18
sequence_text="PTHLSNGQMSTPETPQPSPPGGSG [HNF4A]" recorded_value=5.15
sequence_text="GADKEILTTKGEMPVQLTSRREIR [ANKRD40]" recorded_value=4.83
sequence_text="QKSGLIRHQKIHSGEKPYKCSDCG [ZNF649]" recorded_value=3.63

Record request: protein stability index value, item FPTDAPYPTTLGKDRECQSQSLAL [ZNF8] 4.07

Find the recorded protein stability index belonging to KSVAWEGGACPAFLPSLRPPPLTS [NCF4] and report it. 3.12

// lookup protein stability index for SALPLAPNHLGGGAVVLGAESHAS [STX5] 4.22

GET /values?readout=protein stability index&item= QGVHQGAGFQDIPKRCLKAREHFG [TSN] 3.31

Data request, read-out protein stability index, for AECFRIFDRNADGYIDPEELAEIF [TNNC2] 5.32

Look up protein stability index for this sequence: LLQSFHGHGADVLCLDLAPSETGN [GNB5] 3.23

Which protein stability index is reported for this sequence? PAPLLVLCPSRAELDRWLYHLEKQ [PLEKHN1] 2.62

Data request, read-out protein stability index, for GWGDCVWLPYLYTLQGLYLVYHPV [DHCR7] 3.81

====

Assay: protein stability index of a GFP-peptide fusion (GPS, HEK-293T) (PSI 1-6); higher = more stable
Conditions: treatment: DMSO; c terminus: a fixed tail appended
readout_type: protein stability index
Give your answer as a number; write no unit.

# count of solved cases: 5
sequence_text="QAWGSMLEVPAGSRLNLTGLGYFS [CCDC3]" recorded_value=2.35
sequence_text="ITGLPLDNPSVLSGPMQAALQAAA [SMG5]" recorded_value=3.08
sequence_text="DRTFTLKTVLMIAIQLLSRMEYVH [CSNK1G1]" recorded_value=3.15
sequence_text="QEDITKSLLVTELGSSRTPETVRM [IMPA1]" recorded_value=4.58
sequence_text="KDVSRCVAERKYTQEQARKEFQQV [SMOC2]" recorded_value=4.49

May I ask what protein stability index has been recorded for EEPCSPGLLQDQGSGLSSRFEEPK [CBY2] ? 5.4

I would be grateful if you could share the reported protein stability index for NDTNSFTVDCEPSDLFRLQEYNIP [CDS2] . 3.65

====

Assay: protein stability index of a GFP-peptide fusion (GPS, HEK-293T) (PSI 1-6); higher = more stable
Conditions: treatment: DMSO; c terminus: a fixed tail appended
readout_type: protein stability index

As a guide, the following entries are already answered.
sequence_text="EIPDQNIDVEALQVAFGSLYRDDV [GMCL1]" recorded_value=4.58
sequence_text="IAAGEVIQRPANAIKEMIENCLDA [MLH1]" recorded_value=4.26
sequence_text="CSQHWGGMASFRFPETTFISVTAY [TBX6]" recorded_value=3.18

May I ask what protein stability index has been recorded for PSNFLEIDVSNPQTVGVGRGRFTT [SNX3] ? 3.84

Any idea what protein stability index was measured for EIEQLLARLTGVNDKMAEYTNSAG [GOSR1] ? 2.29

Looking for the measured protein stability index of VLYPDGQAQMIHPKPADFRNPGPG [INTS4] , can you help? 3.59

Reported protein stability index, sequence TLSFIVDGQYLGVAFRGLKGKKLY [SPSB4] : ____ 2.16

Which measured protein stability index value corresponds to TIEYLKRHNALLSKRLLALTSSDL [TMEM192] ? 2.38

Requested read-out: protein stability index. Entry: TPKSGEPRVPEEAAQDRPMSPGDC [YJU2B] 5.49

Sample FDECGITDDQLLALLPSLSHCSQL [PRAME] — what was its protein stability index? 3.31

Recorded protein stability index of VGGGSGDEASAATPPSSRRVWSPP [ZBTB22] , please. 4.66

Reported protein stability index, sequence KLPSRRQPGLLHLQSCGDLHTFTP [FAM189A2] : ____ 4.92

GET /values?readout=protein stability index&item= AEALGKLLQQNKSIQSLTLEWNSL [LRRC45] 2.13

====

Assay: protein stability index of a GFP-peptide fusion (GPS, HEK-293T) (PSI 1-6); higher = more stable
Details: treatment: DMSO; c terminus: native
Label scheme for protein stability index: lower than 4 is 0.0, 4 and above is 1.0.

sequence_text="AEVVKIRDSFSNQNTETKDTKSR [DLC1]" discrete_label=0.0

Kindly determine if protein stability index recorded for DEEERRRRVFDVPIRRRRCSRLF [FBXO3] is above or exactly 4. 0.0

Could you please find out whether GGPFPLPYTAPGGYLDVGSKPMY [TBX6] has protein stability index that meets 4 or exceeds it? 0.0

Identify whether the reported protein stability index of the following sequence is 4 or greater: PMMKLKRHFVAQKYKKQIDHMYH [ACSBG2] 0.0

====

Experiment: protein stability index of a GFP-peptide fusion (GPS, HEK-293T) (PSI 1-6); higher = more stable
Conditions: treatment: MLN4924 1 uM, 8 h; c terminus: a fixed tail appended
Assign 1 whenever protein stability index does not fall below 3; assign 0 whenever it does.

Some solved entries appear below for comparison.
sequence_text="NVVVHDWLYYYAYKDFLWFFSKRF [SOAT1]" discrete_label=0
sequence_text="TAAVLGLICEGLYPASIVDEPTFK [ZBED1]" discrete_label=0
sequence_text="HPAFLPQRQAIKGAFYRRAQRLRP [KCNG1]" discrete_label=1

protein stability index >= 3 for SKYHRFISFTLYLIGFCMFVLSLV [CDS2] ? 0

State whether the measured protein stability index reaches 3, counting equality as reaching it, for HHDKVQSLCYLQLTRQLVSCSSDG [WDFY1] 0

Hi, just wondering whether VRDQISHCTVKLRQTTGLMEYCLE [TRIM9] shows protein stability index of 3 or higher. 0

====

Assay: protein stability index of a GFP-peptide fusion (GPS, HEK-293T) (PSI 1-6); higher = more stable
Details: treatment: MLN4924 1 uM, 8 h; c terminus: a fixed tail appended
readout_type: protein stability index
API doc: respond with a numeric literal and nothing else, no unit.

Suppose we examine the sequence QARQFRTFHHPTYGSCYTVDGVWT [SCNN1D] ; what protein stability index value has been reported? 2.3

====

Assay: protein stability index of a GFP-peptide fusion (GPS, HEK-293T) (PSI 1-6); higher = more stable
Conditions: treatment: MLN4924 1 uM, 8 h; c terminus: a fixed tail appended
Mark criterion met for reported protein stability index of 3 or greater; mark criterion not met for anything smaller.

sequence_text="CPEVKLKTTGLEEAAEAETAKDNG [SRPK2]" discrete_label="criterion met"
sequence_text="GPESPPPPYSRLSPRDEYKPLDLS [SMAD6]" discrete_label="criterion met"
sequence_text="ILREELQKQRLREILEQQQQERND [ZNF277]" discrete_label="criterion met"
sequence_text="VCTFTYLLVGAAVFDALESDHEMR [KCNK9]" discrete_label="criterion not met"
sequence_text="EEKIQVLQQQNEDLKARIDQNTVV [MTUS2]" discrete_label="criterion met"
sequence_text="TEVPFSITTDNLQCRERREHPNLV [TEKT4]" discrete_label="criterion met"
sequence_text="AIMNALIEAGAHMDATNAFKKTAY [FEM1A]" discrete_label="criterion not met"
sequence_text="QRQVWLLFEYPESSGPARGIAIVS [KCNA3]" discrete_label="criterion not met"
sequence_text="SSDKVRGIETLESVPIIGGFWETI [PHTF1]" discrete_label="criterion not met"
sequence_text="WRWQLYAAQSTKSPWNFLGDELYE [CLPTM1]" discrete_label="criterion not met"

Say whether GRKFLQKHLNASNPTEPATIIFTA [TOR1AIP2] shows protein stability index of 3 or more. criterion not met

Would you say CAFLLLRLLVGLALATLRVLRGLA [TMEM175] shows protein stability index at minimum 3? criterion met

Reported protein stability index at or above 3? HLKKVASRYQNNIKNDKYGPWLEW [PRIM1] criterion not met

Reported protein stability index reaches at least 3 for IPKPQSTGWFGGGFTSYLGFGDED [MIA2] ? criterion met

Check if protein stability index >= 3 (inclusive). Item: PSVPCTPAPQVGTQIRTITEEIRD [KRT36] criterion met

# check: protein stability index of CKKLHIPLKAQNDLDISRIKRGNT [P2RY14] is greater than or equal to 3 criterion met

Threshold query (protein stability index >= 3) on KKDRPLARRKSELPQDPHTKKALE [PPP2R5C] criterion met

// provenance: the supplement of paper PMC10567573
